testedSystem: Carbonic anhydrase 2 (Homo sapiens)
assayInfo: Inhibition of recombinant human carbonic anhydrase 2 expressed in Escherichia coli preincubated for 15 mins by stopped-flow CO2 hydration assay
Item-by-item account of pKi
Please express pKi as -log10 of the molar concentration.

- structureSmiles: "NS(=O)(=O)c1ccc(N=C2C(=O)Nc3ccccc32)cc1"
  pKi: 6.28

Then there is this compound:
Ask: So what's the measured pKi for this one? `Cc1ccc2c(c1)/C(=N/c1cccc(S(N)(=O)=O)c1)C(=O)N2`
Result: 6.25

====

testedSystem: Carbonic anhydrase (Candida albicans (strain SC5314 / ATCC MYA-2876) (Yeast), UniProt Q5AJ71)
Sequence (Q5AJ71 whole entry): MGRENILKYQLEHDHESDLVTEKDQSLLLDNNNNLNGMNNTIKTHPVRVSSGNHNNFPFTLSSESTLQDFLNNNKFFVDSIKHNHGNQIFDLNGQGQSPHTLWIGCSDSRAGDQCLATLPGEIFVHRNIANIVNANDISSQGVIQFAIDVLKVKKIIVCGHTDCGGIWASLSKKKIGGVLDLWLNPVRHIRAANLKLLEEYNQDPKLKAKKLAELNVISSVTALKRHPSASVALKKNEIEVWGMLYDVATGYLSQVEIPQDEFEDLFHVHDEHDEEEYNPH
assayInfo: Inhibition of recombinant Candida albicans beta carbonic anhydrase NCE103 expressed in Escherichia coli preincubated for 15 mins by stopped-flow CO2 hydration assay
measuredEndpoint: Ki (nM)
Provide the reading as a plain figure in nM.

See these solved cases before continuing.
- structureSmiles: "Cc1ccc2c(c1)/C(=N/c1ccccc1S(N)(=O)=O)C(=O)N2"
  Ki (nM): 139
- structureSmiles: "NS(=O)(=O)c1cccc(/N=C2\\C(=O)Nc3ccc(OC(F)(F)F)cc32)c1"
  Ki (nM): 88
- structureSmiles: "Cc1ccc2c(c1)/C(=N/c1cccc(S(N)(=O)=O)c1)C(=O)N2"
  Ki (nM): 157
- structureSmiles: "NS(=O)(=O)c1cccc(/N=C2\\C(=O)Nc3ccc(Cl)cc32)c1"
  Ki (nM): 54.8
- structureSmiles: "NS(=O)(=O)c1cccc(/N=C2\\C(=O)Nc3ccccc32)c1"
  Ki (nM): 98.1

Ask: So what's the measured Ki for this one? `NS(=O)(=O)c1ccccc1/N=C1\C(=O)Nc2ccc(Cl)cc21`
Result: 65.7

Ask: So what's the measured Ki for this one? `NS(=O)(=O)c1ccc(N=C2C(=O)Nc3ccccc32)cc1`
Result: 86.5

Ask: So what's the measured Ki for this one? `NS(=O)(=O)c1ccc(/N=C2\C(=O)Nc3ccc(F)cc32)cc1`
Result: 85.2

Ask: So what's the measured Ki for this one? `NS(=O)(=O)c1cccc(/N=C2\C(=O)Nc3ccc(F)cc32)c1`
Result: 61.3

Ask: So what's the measured Ki for this one? `CN1C(=O)/C(=N\c2ccc(S(N)(=O)=O)cc2)c2cc(Cl)ccc21`
Result: 178

Ask: So what's the measured Ki for this one? `NS(=O)(=O)c1ccccc1/N=C1\C(=O)Nc2ccc(OC(F)(F)F)cc21`
Result: 295
